measurement name: melting point (°C)

compound="COc1cccc2c(=O)c3c(O)cc(OCC(O)CO)cc3oc12 (centres undefined)" measurement_name="melting point" result_unit=°C recorded_measurement=189
compound=CCS(=O)(=O)N[C@H]1CC[C@H](CCN2CCN(c3nccc4c3OCC4)CC2)CC1 measurement_name="melting point" result_unit=°C recorded_measurement=190

###

// reported melting point for each item listed
measurement name: melting point

molecule=c1ccc(CCC2CCN(Cc3nc4ccccc4[nH]3)CC2)cc1 measurement_name="melting point" recorded_measurement="170 °C"
molecule=CCOC(=O)c1ncc2[nH]c3cccc(Oc4ccc(N)cc4)c3c2c1COC measurement_name="melting point" recorded_measurement="222 to 224 °C"
molecule=CCN(CC)CCOc1nc2ccccc2n(-c2ccc(Cl)cc2)c1=O measurement_name="melting point" recorded_measurement="165 to 167 °C"
molecule=COc1c([N+](=O)[O-])ccc2c1C(=O)CC1(CCN(C(C)=O)CC1)O2 measurement_name="melting point" recorded_measurement="160 to 165 °C"
molecule=COc1cccc(-c2cc(-c3ccc(-c4c(Cc5ccccc5)sc5ccccc45)cc3)cc(Br)c2OCC(=O)O)c1 measurement_name="melting point" recorded_measurement="88 to 90 °C"
molecule="Fc1ccc2[nH]cc(C3=CCN(CC4CCc5ccccc5O4)CC3)c2c1 (stereo not given)" measurement_name="melting point" recorded_measurement="172 to 175 °C"
molecule=Oc1nc(-c2ccccc2)nc(-c2ccccc2)n1 measurement_name="melting point" recorded_measurement="296 to 297 °C"
molecule=COc1ccc(O)c2[nH]c(C)c(C)c12 measurement_name="melting point" recorded_measurement="159 °C"
molecule=COc1cnc(C)c(C)c1OC measurement_name="melting point" recorded_measurement="36 to 38 °C"
molecule=C#CCn1c(C)c(CO)sc1=O measurement_name="melting point" recorded_measurement="62 °C"
molecule=Nc1c(NCCCOc2cccc(C3OCCO3)c2)c(=O)c1=O measurement_name="melting point" recorded_measurement="209 to 210 °C"
molecule=COc1ccc(C(=O)Nc2ccccc2)cc1Nc1ccccc1 measurement_name="melting point" recorded_measurement="194 to 195 °C"
molecule=COc1cc(-c2csc3c2OCCO3)c(OC)c2c(OC)cc(-c3csc4c3OCCO4)c(OC)c12 measurement_name="melting point" recorded_measurement="300 to 303 °C"
molecule="COC1CCN2C(=O)c3cccc(NC(=O)Nc4ccccn4)c3C2C1 (stereo not given)" measurement_name="melting point" recorded_measurement="166 to 168 °C"
molecule=O=C1CCCN1C(=O)Oc1ccc(Br)cc1 measurement_name="melting point" recorded_measurement="107 to 108 °C"
molecule=O=C(Cc1ccccc1)N[C@@H]1C(=O)N[C@@H]1SCC(=O)c1ccccc1 measurement_name="melting point" recorded_measurement="160 to 162 °C"
molecule=CSc1nnc(-c2ccc3occ(-c4ccc(OC(F)(F)F)cc4)c3c2)o1 measurement_name="melting point" recorded_measurement="138 to 139 °C"
molecule=O=C(O)CCC(=O)N1CCc2cc(S(=O)(=O)N3CCN(c4cccc(Cl)c4)CC3)ccc21 measurement_name="melting point" recorded_measurement="228 to 230 °C"
molecule=O=C(O)CCc1cn(Cc2cc(OCc3ccccc3)cc(OCc3csc(-c4cnccn4)n3)c2)cc1-c1ccccc1 measurement_name="melting point" recorded_measurement="109 to 110 °C"
molecule=O=C(NC1CCN(CCc2ccccc2)CC1)c1c[nH]c2ccc(F)cc12 measurement_name="melting point" recorded_measurement="238 to 240 °C"
